- experimental-details: NCI Yeast Anticancer Drug Screen. Data for the mlh1 strain (AID 171);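 further: 0% = growth of vehicle-treated control cultures of the same strain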
- condition-label: S. cerevisiae mlh1 strain growth inhibition; at 11.0 µM
This is part of a sample that, as a whole, favours compounds with a hit. Of some 79,000 tested, about 15% had one in any assay. Calls of active or inactive are those of the source. No stated cut-off is given here; in the data, active means growth inhibition above about 70%; inactive means the rest.
Output constraint: value belongs to True = active, False = inactive

Exercise: # outcome recorded in this test, key = "O=C1CC(=O)c2ccccc21"
Solution: False

Exercise: # outcome recorded in this test, key = CCCCCCCCCCCC(O)S(=O)(=O)O (stereo not given)
Solution: False

Exercise: # outcome recorded in this test, key = Cc1ccc(NC(c2ccccc2)c2ccc3cccnc3c2O)cc1 (stereo not given)
Solution: False

Exercise: # outcome recorded in this test, key = O=C(O)CCCC1CCCc2c1ccc1ccccc21 (stereo not given)
Solution: False

Exercise: # outcome recorded in this test, key = C[CH2][Sn]([CH2]C)([O]C(=O)C(N)Cc1ccccc1)[O]C(=O)C(N)Cc1ccccc1 (stereo not given)
Solution: False

Exercise: # outcome recorded in this test, key = "Cc1ccc([N+]2=NC(c3ccccc3)=NN(c3ccccc3)C2)cc1"
Solution: False

Exercise: # outcome recorded in this test, key = C=C1C(=O)OC2CC1C(OC(C)=O)C/C(C)=C/CC/C(C)=C\CCC2(C)O (stereo not given)
Solution: False

Exercise: # outcome recorded in this test, key = "O=[n+]1c2ccccc2n([O-])c2cc(Br)ccc21"
Solution: False

###

- experimental-details: NCI Yeast Anticancer Drug Screen. Data for the mec2-1 strain (AID 157)
- condition-label: S. cerevisiae mec2-1 strain, at 100.0 µM, hits give high values
Compounds without any hit were thinned out: in the full panel of roughly 79,000, 15% have a hit.
quantity: growth inhibition (%)
Write the answer as a number in %, unit excluded.

Solved cases (6 shown):
compound: CC[N+]1(C)CCC(O)(c2ccc(OC)cc2)C(C(=O)c2ccc(OC)cc2)C1 (stereo unspecified)
growth inhibition (%): -74

compound: CCOC(=O)c1[nH]cc(C)c1-c1cccn1-c1ccc(Cl)cc1[N+](=O)[O-]
growth inhibition (%): 85

compound: COc1cccc(/C=N/C(/N=C/c2cccc(OC)c2O)c2cccc(OC)c2O)c1O
growth inhibition (%): 96

compound: Cc1cc(C(C)(C)C)c(OCCCN2CCOCC2)c(C(C)(C)C)c1
growth inhibition (%): 98

compound: COc1cc(/C=C2\NC(=O)N(/C=C3\C(=O)Oc4ccccc4C3=O)C2=O)ccc1O
growth inhibition (%): 96

compound: CCOC(=O)C1=C(C)NC(C)=C(C(=O)OCCNC(=O)c2ccc(N=[N+]=[N-])cc2)C1c1ccccc1C(F)(F)F (stereo unspecified)
growth inhibition (%): 47

For CCCCCCC(O)CNCc1ccnc2ccc(OC)cc12 (stereo unspecified) the compound record lists growth inhibition as 46

For "CCOC1(c2cccc([N+](=O)[O-])c2)c2ccccc2Oc2ccccc21" the compound record lists growth inhibition as 13

For "O=P(NC1CCCCC1)(OCc1ccccc1)OCc1ccccc1" the compound record lists growth inhibition as 11

For O=C1OC(C2=CC(=O)c3ccccc3C2=O)C(Cl)=C1Cl (stereo unspecified) the compound record lists growth inhibition as 56

For "O=C(C[n+]1ccc2ccccc2c1)c1ccc2ccccc2c1" the compound record lists growth inhibition as 98

For "CCOC(=O)/C(=C\c1ccc(C#N)cc1)C(C)=O" the compound record lists growth inhibition as 98

For "Cc1ccccc1N=Cc1cc(Cl)ccc1O" the compound record lists growth inhibition as 53

For Nc1ncnc2c1ncn2C1OC(CO)CC1O (stereo unspecified) the compound record lists growth inhibition as 92

For CC1CC(C)(C)CC(OCCN2CCCCC2)(c2ccccc2)C1 (stereo unspecified) the compound record lists growth inhibition as 54

For COC(=O)CC1CCc2c(ccc3ccccc23)C1(C)C(=O)OC (stereo unspecified) the compound record lists growth inhibition as 6
